Hello, the source for this data is patent US6969731B1, in case you need it.

- measurementTarget: HIV-1 protease resistant mutant G48V (Human immunodeficiency virus type 1 group M subtype B, UniProt P04585, G536V)
- Construct: The active HIVPr is a homodimer of 99-residue monomers
- testContext: G48V mutant; with standard error
measuredParameter: pKi
Kindly note that pKi refers to -log10 of the concentration in mol/L and answer with the value alone.

Query: // returns reported pKi for input CC(C)CN(CC(O)C(Cc1ccccc1)NC(=O)C(Cc1ccccc1)CC(O)C(Cc1ccccc1)NC(=O)OC1CCCO1)S(=O)(=O)c1cccc(O)c1 (stereo not shown)
Result: 8.06

====

- measurementTarget: HIV-1 protease resistant mutant I93L (Human immunodeficiency virus type 1 group M subtype B, UniProt P04585, I581L)
- Construct: The active HIVPr is a homodimer of 99-residue monomers
- testMethodNotes: Ki determination, HIV-1 protease mutant I93L
- testContext: I93L mutant; with standard error
measuredParameter: pKi
A value of pKi is the negative decimal logarithm of a concentration given in moles per litre.

Query: What does the data say about its pKi? Entry: CC(C)CN(CC(O)C(Cc1ccccc1)NC(=O)C(Cc1ccccc1)CC(O)C(Cc1ccccc1)NC(=O)OC1CCCO1)S(=O)(=O)c1cccc(O)c1 (stereo not shown)
Result: 8.52

====

- measurementTarget: HIV-1 protease resistant mutant I64V (Human immunodeficiency virus type 1 group M subtype B, UniProt P04585, I552V)
- Construct: The active HIVPr is a homodimer of 99-residue monomers
- testContext: I64V mutant; with standard error
measuredParameter: pKi
Give only the number. pKi is defined as minus log10 of concentration in molar units.

Query: If you can, please state the reported pKi value of CC(C)CN(CC(O)C(Cc1ccccc1)NC(=O)C(Cc1ccccc1)CC(O)C(Cc1ccccc1)NC(=O)OC1CCCO1)S(=O)(=O)c1cccc(O)c1 (stereo not shown) .
Result: 8.20

====

- measurementTarget: HIV-1 protease resistant mutant K20R (Human immunodeficiency virus type 1 group M subtype B, UniProt P04585, K508R)
- Construct: The active HIVPr is a homodimer of 99-residue monomers
- testContext: K20R mutant; with standard error
measuredParameter: Ki (nM)
Field: numeric (nM). Do not append units.

Query: Ki; subject: CC(C)CN(CC(O)C(Cc1ccccc1)NC(=O)C(Cc1ccccc1)CC(O)C(Cc1ccccc1)NC(=O)OC1CCCO1)S(=O)(=O)c1cccc(O)c1 (stereo not shown) [UIC-98-056]
Result: 2.9

====

- measurementTarget: HIV-1 protease resistant mutant I84V (Human immunodeficiency virus type 1 group M subtype B, UniProt P04585, I572V)
- Construct: The active HIVPr is a homodimer of 99-residue monomers; made in house
- Assay type: biochemical
- testContext: I84V mutant; with standard error
measuredParameter: pKi
Formally, pKi is defined as -log10 of the concentration c, with c in mol/L.

Query: What value of pKi has been reported for the following molecule? CC(C)CN(CC(O)C(Cc1ccccc1)NC(=O)C(Cc1ccccc1)CC(O)C(Cc1ccccc1)NC(=O)OC1CCCO1)S(=O)(=O)c1cccc(O)c1 (stereo not shown)
Result: 7.26

====

- measurementTarget: HIV-1 protease resistant mutant V82A (Human immunodeficiency virus type 1 group M subtype B, UniProt P04585, V570A)
- Construct: The active HIVPr is a homodimer of 99-residue monomers
- testContext: V82A mutant; with standard error
measuredParameter: pKi
Quick note: pKi values are minus log10 of concentrations in mol/L.

Query: I have this compound here, CC(C)CN(CC(O)C(Cc1ccccc1)NC(=O)C(Cc1ccccc1)CC(O)C(Cc1ccccc1)NC(=O)OC1CCCO1)S(=O)(=O)c1cccc(O)c1 (stereo not shown) [UIC-98-056] , and I need its recorded pKi.
Result: 8.21
